Test system: SF-268 CNS
Test: NCI-60 one-dose screen, 48 h (100 = growth as untreated, 0 = no growth, -100 = all killed)
Settings: 10 µM unless noted
Description: Cells are grown in 96 well plates and exposed to the test compound for 48 hours. Compounds are tested at a single concentration, which is 10^-5 M for most compounds. The reported endpoint is percent growth (GI% or GIPRCNT), where numbers from 0 - 100% represent growth inhibition, and numbers from -100% - 0 represent cell death. For example, a value of 40 represents 60% growth inhibition. A value of 0 means no net growth occurred over the course of the experiment. […]
Compounds without any hit were thinned out: in the full panel of roughly 83,000, 20% have a hit. Active and inactive are the calls of the source. The calls were made as follows: active = growth percent below 10; inactive = the rest.
Listing of recorded growth by entry.

Please review the following examples before continuing.
Entry O=C(C1=CNC(=S)NC1c1ccc(O)cc1)c1cc2ccccc2oc1=O (stereo not drawn) , system SF-268 CNS: what growth was measured? 97.5% (inactive)

What about this molecule? COc1cc2oc(-c3cccc(C(=O)Nc4ccc(Cl)cc4)c3)cc(=O)c2c(OCCNC(=O)[C@H](CO)NC(=O)OC(C)(C)C)c1OC 41.4% (inactive)

How about this molecule: Cc1ccccc1[C@H]1C(C(=O)c2ccc(Cl)cc2)C2(N[C@@H]1c1ccccc1)C(=O)Nc1ccc(Cl)cc12 (stereo partly drawn) 29.3% (inactive)

Can you check CC1[C@H]2[C@H](C[C@H]3[C@@H]4CC=C5c6sc(Nc7ccccc7F)nc6CC[C@]5(C)[C@H]4CC[C@@]32C)O[C@]12CC[C@@H](C)CO2 (stereo partly drawn) next? -53.5% (active)

Another molecule: COc1ccc(N2N=C(c3ccc4c(c3)OCO4)CC2c2cccc(NC(=O)CCCNS(=O)(=O)c3ccc(F)cc3)c2)cc1 (stereo not drawn) 52.8% (inactive)

// repeat for CC(C)CSc1nc(NCCc2c[nH]c3ccccc23)c(C#N)c(-c2ccc(F)cc2)n1 and report 51.9% (inactive)

Continuing:
Reported growth for SF-268 CNS, given CCCCCCCCc1ccc(C(=O)Nc2cccc(P(=O)(O)O)c2)cc1 ? 107% (inactive)

What about this molecule? Cc1ccc2c(c1)nc(-c1ccccc1)n2CC(=O)N=Nc1c(O)[nH]c2ccc(Br)cc12 0.768% (active)

* * *

test system: CCRF-CEM leukemia; test: NCI-60 one-dose screen, 48 h (100 = growth as untreated, 0 = no growth, -100 = all killed); conditions: 10 µM unless noted
This is part of a sample that, as a whole, favours compounds with a hit. Of some 83,000 tested, about 20% had one in any assay.
Listing of entries alongside the reported growth.
Your answer is read as %, so omit the unit and give the number.

Field: example entries. Status: answers known.
Sample Nc1cccc(SCc2cc3ccccc3[nH]c2=O)c1 — what was its growth? 33

What would you report for N#Cc1c(-c2ccccc2Cl)cc(-c2c[nH]c3ccccc23)[nH]c1=O ? 32.2

Others:
Entry under review: C#C[C@]1(O)CC[C@H]2[C@@H]3CC=C4c5sc(-c6ccc(O)c(O)c6)nc5CC[C@]4(C)[C@H]3CC[C@@]21C . Reported growth? -27.9

* * *

test system: UACC-257 melanoma; experiment: NCI-60 one-dose screen, 48 h (100 = growth as untreated, 0 = no growth, -100 = all killed); settings: 10 µM unless noted
About 83,000 compounds went through this panel and 20% of them were active in at least one assay; those are over-represented in the sample as a whole.
READOUT LABEL: growth (%)
Dear colleague, please return just the value in %, with no unit written.

Value lookup for growth; key = COc1cc(C2CC(c3cc(OC)c(OC)c(OC)c3)=NN2C(C)=O)ccc1OCc1ccccc1 (centres undefined) 48.8

How about COc1ccc(-c2nc(SC(C)C)nc(NCCc3c[nH]c4ccccc34)c2C#N)cc1 ? 82.5

Try this compound too: CCCCSc1nc(Nc2ccc(C(C)=O)cc2)c(C#N)c(-c2ccc(OC)cc2)n1 104

Continuing:
Which growth value belongs to CN(C)CCCNC(=O)c1cc(NC(=O)c2cc(NC(=O)c3ccc(C#Cc4ccccc4)cc3)cn2C)cn1C ? 43.8

Same question for CC(=O)Oc1ccc(/C=C/C(=O)N[C@@H](Cc2ccccc2)C(O)C(=O)NCc2ccccc2)cc1OC(C)=O (some centres undefined) please. 90.8

Another: N#Cc1c(-c2cccc(O)c2O)cc(-c2ccc3ccccc3c2)[nH]c1=O 99.9

Item: O=c1oc2ccc(Br)cc2cc1C1=CSc2nc3sc4c(c3c(=O)n2N=C1)CCCC4 90.9

Try this compound too: CC1(C)CC[C@]2(C(=O)Nc3ccccc3)CC[C@]3(C)C(=CCC4[C@@]5(C)C[C@@H](O)[C@H](O)[C@@](C)(CO)C5CC[C@]43C)C2C1 (some centres undefined) 65.6

Same lookup for O=C(NNc1ccccc1)n1c(=O)c2ccccc2c(=O)n1-c1ccccc1 , please. 77.6
